src = patent US20120065187A1

target: human H1 (Homo sapiens); test: In vitro histamine receptor cell-based assay (aequorin bioluminescence), H1 antagonism; details: CHO-K1 cells expressing human H1 and aequorin; histamine at EC80; read-out: H1 Antagonist EC50
Sequence (P35367 whole entry): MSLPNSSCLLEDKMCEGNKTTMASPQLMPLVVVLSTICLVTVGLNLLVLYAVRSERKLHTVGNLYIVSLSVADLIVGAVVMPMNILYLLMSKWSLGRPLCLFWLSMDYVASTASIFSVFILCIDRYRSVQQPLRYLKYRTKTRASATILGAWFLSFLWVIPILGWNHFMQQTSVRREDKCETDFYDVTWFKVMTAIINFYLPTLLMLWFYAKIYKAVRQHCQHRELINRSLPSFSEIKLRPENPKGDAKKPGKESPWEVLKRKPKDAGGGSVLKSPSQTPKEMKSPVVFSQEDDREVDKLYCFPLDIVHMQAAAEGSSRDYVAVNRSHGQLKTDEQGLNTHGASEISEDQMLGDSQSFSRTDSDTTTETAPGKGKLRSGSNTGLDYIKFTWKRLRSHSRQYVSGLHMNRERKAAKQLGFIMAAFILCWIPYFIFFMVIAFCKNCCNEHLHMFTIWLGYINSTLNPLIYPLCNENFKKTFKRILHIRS
Counter-ions that a name gives are not always drawn.
Measure Name: EC50

>>> print(df.to_string())
                                compound  measure_name  result_value
0   Cc1nc2c3ccc(F)cc3nc(N3CCN(C)CC3)n2n1          EC50       > 10 µM
1  CN1CCN(c2nc3cc(Br)c(F)cc3n3cnnc23)CC1          EC50       > 10 µM
2      Cc1cc2c(cc1F)nc(N1CCNCC1)c1nncn12          EC50       > 10 µM
3  Cc1nc2c3cc(Br)ccc3nc(N3CCN(C)CC3)n2n1          EC50       < 10 µM

### Prompt Provide EC50, tested on human H1 (Homo sapiens), for FC(F)(F)c1ccc2c(c1)nc(N1CCNCC1)c1nccn12 [Example 183, hydrochloride] .
### Response > 10 µM

### Prompt Provide EC50, tested on human H1 (Homo sapiens), for "CN1CCN(c2nc3cc(Cl)ccc3c3nccnc23)CC1" .
### Response < 10 µM

### Prompt Provide EC50, tested on human H1 (Homo sapiens), for "CCc1nc2c3cc(Cl)ccc3nc(N3CCN(C)CC3)n2n1" .
### Response > 10 µM

### Prompt Provide EC50, tested on human H1 (Homo sapiens), for "Cc1cc2c(cc1F)nc(N1CCN(C)CC1)c1nncn12" .
### Response > 10 µM

### Prompt Provide EC50, tested on human H1 (Homo sapiens), for "CN1CCN(c2nc3ccc(C(F)(F)F)cc3c3c[nH]nc23)CC1" .
### Response > 10 µM

### Prompt Provide EC50, tested on human H1 (Homo sapiens), for "Fc1cc(Cl)cc2c1nc(N1CCNCC1)c1nncn12" .
### Response > 10 µM

### Prompt Provide EC50, tested on human H1 (Homo sapiens), for FC(F)(F)c1ccc2nc(N3CCNCC3)c3nccn3c2c1 [Example 178, hydrochloride] .
### Response > 10 µM

### Prompt Provide EC50, tested on human H1 (Homo sapiens), for CNC1CCN(c2nc3ccc(Cl)cc3n3cnnc23)C1 (stereo not drawn) .
### Response > 10 µM

* * *

target: human H4 (Homo sapiens, UniProt Q9H3N8); construct: host or cells: CHO-K1; experiment: In vitro histamine receptor cell-based assay (aequorin bioluminescence), H4 antagonism; settings: CHO-K1 cells expressing human H4, aequorin and Gα16; histamine at EC80; read-out: H4 Antagonist EC50
Sequence (Q9H3N8 whole entry): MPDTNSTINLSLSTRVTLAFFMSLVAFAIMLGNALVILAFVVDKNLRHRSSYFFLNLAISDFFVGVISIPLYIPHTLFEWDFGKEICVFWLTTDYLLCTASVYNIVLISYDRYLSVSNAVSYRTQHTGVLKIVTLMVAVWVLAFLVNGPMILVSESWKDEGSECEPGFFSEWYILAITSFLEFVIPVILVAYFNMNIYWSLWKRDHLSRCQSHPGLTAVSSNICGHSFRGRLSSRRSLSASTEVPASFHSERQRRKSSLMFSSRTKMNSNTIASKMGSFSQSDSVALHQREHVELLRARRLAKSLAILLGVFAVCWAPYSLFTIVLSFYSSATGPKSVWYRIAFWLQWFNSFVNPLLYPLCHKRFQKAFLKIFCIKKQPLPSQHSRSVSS
pEC50: −log10 of the molar value.
Measure Name: pEC50

>>> print(df.to_string())
                                   compound  result_value
0  CN1CCN(c2nc3cc(C(F)(F)F)c(F)cc3n3nnnc23)CC1 [Example 201]        > 5.00

### Prompt Supply reported pEC50 belonging to this compound: CN1CCN(c2nc3ccc(Cl)cc3n3nnnc23)CC1 [Example 20]
### Response > 5.00

### Prompt Supply reported pEC50 belonging to this compound: Cc1nnc2c(N3CCN(C)CC3)nc3ccc(Cl)cc3n12 [Example 84]
### Response > 5.00

* * *

target: human H4 (Homo sapiens, UniProt Q9H3N8); construct: host or cells: CHO-K1; assay: In vitro histamine receptor cell-based assay (aequorin bioluminescence), H4 antagonism; conditions: CHO-K1 cells expressing human H4, aequorin and Gα16; histamine at EC80; read-out: H4 Antagonist EC50
Measure Name: EC50

>>> df
                          compound  result_value
0  Fc1cc2nc(N3CCNCC3)c3nnnn3c2cc1F       < 10 µM

### Prompt Supply reported EC50 belonging to this compound: "Clc1ccc2c(c1)nc(N1CCNCC1)c1nocc12"
### Response < 10 µM

### Prompt Supply reported EC50 belonging to this compound: "CN(CCN)c1nc2ccc(Cl)cc2n2cnnc12"
### Response > 10 µM

### Prompt Supply reported EC50 belonging to this compound: "CN1CCN(c2nc3ccc(Br)cc3c3conc23)CC1"
### Response < 10 µM

### Prompt Supply reported EC50 belonging to this compound: "FC(F)(F)c1ccc2nc(N3CCNCC3)n3nc(C(F)(F)F)nc3c2c1"
### Response > 10 µM

### Prompt Supply reported EC50 belonging to this compound: "Fc1cc2nc(N3CCNCC3)c3nncn3c2cc1Cl"
### Response < 10 µM

* * *

target: human H4 (Homo sapiens); construct: host or cells: CHO-K1; assay: In vitro histamine receptor cell-based assay (aequorin bioluminescence), H4 antagonism; settings: CHO-K1 cells expressing human H4, aequorin and Gα16; histamine at EC80; read-out: H4 Antagonist EC50
pEC50: −log10 of the molar value.
Each entry below carries its recorded pEC50.

### Prompt Supply reported pEC50 belonging to this compound: "Fc1cc2nc(N3CCNCC3)c3nccn3c2cc1F"
### Response > 5.00

### Prompt Supply reported pEC50 belonging to this compound: "Clc1ccc2nc(C3CCNCC3)c3nncn3c2c1"
### Response < 5.00

### Prompt Supply reported pEC50 belonging to this compound: "CCc1ccc2nc(N3CCN(C)CC3)n3nc(C)nc3c2c1"
### Response > 5.00

### Prompt Supply reported pEC50 belonging to this compound: "Cc1nc2c3ccc(F)cc3nc(N3CCN(C)CC3)n2n1"
### Response > 5.00

### Prompt Supply reported pEC50 belonging to this compound: "CN1CCN(c2nc3ccc(C(F)(F)F)c(F)c3n3nnnc23)CC1"
### Response > 5.00

### Prompt Supply reported pEC50 belonging to this compound: "Cc1nc2c3cc(Br)cc(F)c3nc(N3CCN(C)CC3)n2n1"
### Response > 5.00

### Prompt Supply reported pEC50 belonging to this compound: "CN1CCN(c2nc3ccc(Cl)cc3c3ncnn23)CC1"
### Response > 5.00

### Prompt Supply reported pEC50 belonging to this compound: Cc1nc2c3cc(C(F)(F)F)c(F)cc3nc(N3CCNCC3)n2n1.Cl [Example 125, hydrochloride]
### Response > 5.00

### Prompt Supply reported pEC50 belonging to this compound: "Fc1cc2nc(N3CCNCC3)c3nncn3c2cc1C(F)(F)F"
### Response > 5.00

* * *

biological target: human H4 (Homo sapiens); construct: host or cells: CHO-K1; experiment: In vitro histamine receptor cell-based assay (aequorin bioluminescence), H4 antagonism; settings: CHO-K1 cells expressing human H4, aequorin and Gα16; histamine at EC80; read-out: H4 Antagonist EC50
Measure Name: EC50

Sample records with EC50:
>>> print(df.to_string())
                                   compound  measure_name  result_value
0     Cc1nc2c3cc(Br)ccc3nc(N3CCN(C)CC3)n2n1          EC50       < 10 µM
1  Cc1nc2c3cc(C(F)(F)F)c(F)cc3nc(N3CCN(C)CC3)n2n1.Cl [Example 124, hydrochloride]          EC50       < 10 µM

### Prompt Supply reported EC50 belonging to this compound: "FC(F)(F)c1ccc2c(c1)nc(N1CCNCC1)c1nncn12"
### Response > 10 µM

### Prompt Supply reported EC50 belonging to this compound: "Fc1cc(Br)cc2c1nc(N1CCNCC1)c1nncn12"
### Response < 10 µM

### Prompt Supply reported EC50 belonging to this compound: "CC(C)Nc1ccc2nc(N3CCN(C)CC3)c3nncn3c2c1"
### Response > 10 µM

### Prompt Supply reported EC50 belonging to this compound: "Cc1nc2c3cc(Cl)ccc3nc(N3CCNCC3)n2n1"
### Response < 10 µM

### Prompt Supply reported EC50 belonging to this compound: "C[C@@H]1CN(c2nc3ccc(Cl)cc3n3cnnc23)C[C@H](C)N1"
### Response > 10 µM

* * *

target: human H4 (Homo sapiens, UniProt Q9H3N8); construct: host or cells: CHO-K1; assay: In vitro histamine receptor cell-based assay (aequorin bioluminescence), H4 antagonism; settings: CHO-K1 cells expressing human H4, aequorin and Gα16; histamine at EC80; read-out: H4 Antagonist EC50
pEC50: −log10 of the molar value.
Measure Name: pEC50

Sample records with pEC50:
                                   molecule  result_value
0  CC(C)c1nnc2c(N3CCN(C)CC3)nc3ccc(Cl)cc3n12        > 5.00
1      Cc1ccc2nc(N3CCN(C)CC3)n3nc(C)nc3c2c1        > 5.00
2     CN1CCN(c2nc3ccc(Cl)cc3c3[nH]cnc23)CC1        > 5.00
3       CCCc1ccc2nc(N3CCN(C)CC3)c3nncn3c2c1        > 5.00

### Prompt Supply reported pEC50 belonging to this molecule: "Cc1nc2c3cc(C(F)(F)F)ccc3nc(N3CCN(C)CC3)n2n1"
### Response > 5.00

### Prompt Supply reported pEC50 belonging to this molecule: "CCc1ccc2nc(N3CCN(C)CC3)c3nncn3c2c1"
### Response > 5.00

### Prompt Supply reported pEC50 belonging to this molecule: "Cc1nc2c3ccc(C(F)(F)F)cc3nc(N3CCNCC3)n2n1"
### Response > 5.00
